- Test system: BL-41 (Burkitt's Lymphoma)
- method: combination Emax (second highest fraction inhibited in the dose matrix, 72 h); higher = more inhibition; extreme values may be limits of the assay
outcome-measure: combination Emax
Could you keep your reply to the number by itself?

Q) Output combination Emax of COc1cccc(OCCCN)c1-c1cc(Nc2cnc(C#N)cn2)n[nH]1 [Prexasertib] + Cc1cc2ncnn2cc1Nc1ncc2c(n1)n(C1CCOCC1)c(=O)n2C [AZD7648] (first compound max 1 µM, 7x7, partner max 10 µM)
A) 1

Q) Output combination Emax of CC1(C)CCC(CN2CCN(c3ccc(C(=O)NS(=O)(=O)c4ccc(NCC5CCOCC5)c([N+](=O)[O-])c4)c(Oc4cnc5[nH]ccc5c4)c3)CC2)=C(c2ccc(Cl)cc2)C1 [Venetoclax] + CS(=O)(=O)CCNCc1ccc(-c2ccc3ncnc(Nc4ccc(OCc5cccc(F)c5)c(Cl)c4)c3c2)o1 [Lapatinib] (first compound max 1 µM, 7x7, partner max 10 µM)
A) 0.855

Q) Output combination Emax of C[C@@H](c1ccc2nccn2c1)n1nnc2ncc(-c3cnn(C)c3)nc21 [Savolitinib] + Cc1c2c(nn1C)CSCc1cc(n(C)n1)CSc1cc(c3ccccc3c1)OCCCc1c(C(=O)O)n(C)c3c-2c(Cl)ccc13 [AZD5991] (first compound max 1 µM, 7x7, partner max 1 µM)
A) 1
